So I've got a bunch of binders here, and I need their EC50 (nM), inhibition of IFNα2b-induced SEAP reporter in HEK-Blue IFNα/β cells values.
# measured_target: T1, human IFNAR-1 on cells (human, UniProt P17181 28-557)
# T1 sequence (looked up): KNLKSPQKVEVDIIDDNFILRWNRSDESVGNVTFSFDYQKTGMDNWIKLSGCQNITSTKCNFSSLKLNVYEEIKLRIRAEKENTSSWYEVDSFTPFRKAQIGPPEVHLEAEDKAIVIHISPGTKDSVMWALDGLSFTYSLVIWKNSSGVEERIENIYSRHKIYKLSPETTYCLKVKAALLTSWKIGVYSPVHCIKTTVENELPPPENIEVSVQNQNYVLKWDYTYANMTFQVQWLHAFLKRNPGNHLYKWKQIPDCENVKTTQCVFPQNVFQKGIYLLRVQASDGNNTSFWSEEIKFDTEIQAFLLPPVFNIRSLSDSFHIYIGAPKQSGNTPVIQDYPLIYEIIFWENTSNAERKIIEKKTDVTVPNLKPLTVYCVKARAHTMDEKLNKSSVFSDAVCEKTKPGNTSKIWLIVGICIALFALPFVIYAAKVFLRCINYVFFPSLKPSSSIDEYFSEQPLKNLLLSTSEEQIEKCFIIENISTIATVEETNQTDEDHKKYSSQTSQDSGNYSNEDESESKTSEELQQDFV
# procedure_text: cell-based or functional assay
Please state the figure in nM; there is no need to write the unit.

*Q* Returns the measured EC50 (nM), inhibition of IFNα2b-induced SEAP reporter in HEK-Blue IFNα/β cells for the input binder. Input: 268E9 (antibody, V domains shown, Hybridoma-derived monoclonal antibody) VH: EVQLQESGPGLAKPSQTLSLTCSVTGYSITSDYWNWIRKFPGNKLEYMGYISYSGSIYYNPSLKSRISITRATSKNQYYLQLNSVTNEDTATYYCARSGGMYYFDYWGQGTTLTVSS VL: DIQMTQSPASLSASVGETVTITCRASGNIHNYLAWYQQKQGKSPQLLVYNAKTLEDGVPSRFSGSGSGTQYSLKINSLQPEDFGSYYCQHFWSIPPTFGSGTKLEIK
*A* 3.87

*Q* Record: 370E5 (antibody, V domains shown, Hybridoma-derived monoclonal antibody) VH: EVQLQQSGAELVKPGASVKLSCTASGFNIKDYYIHWVKQRTEQGLEWIGRIDPEDGETKYAPKFQGKATITADTSSNTAYLQLSSLTSEDTAVYYCARFGGLTAMDYWGQGTSVTVSS VL: DIVMTQSQKFMSTSVGDRVSVTCKASQNVGTNVAWYQQKPGQSPKALIYATSYRYSGVPDRFTGSGSGTDFTLTISNVQSEDLAEYFCQQYNNYPYTFGGGTKLEIK
*A* 2.17
